System: CP247
Assay: qHTS profiling for inhibitors of Plasmodium falciparum proliferation (AID 504749); further: nearly all actives have a fitted effect of over 60% in size
Conditions: P. falciparum in erythrocytes, SYBR Green DNA, 72 h; series mostly up to 12.8 µM
Inconclusive results are not listed. Activity calls are given as the source filed them. The call rests on the fitted dose curve; in most records, active means well fitted inhibition curve with a large enough effect; inconclusive means small, poorly fitted or top-dose-only effect; inactive means flat fitted curve, though single readings scatter.
Classes used: TRUE for active, FALSE for inactive

{"Molecule": "NS(=O)(=O)c1cc2c(cc1C(F)(F)F)N[C@H](Cc1ccccc1)NS2(=O)=O", "Assigned category": "FALSE"}
{"Molecule": "CC1(C)S[C@H]2C(NC(=O)[C@@H](N)c3ccc(O)cc3)C(=O)N2[C@@H]1C(=O)O (some centres undefined)", "Assigned category": "FALSE"}
{"Molecule": "COc1ccc(CC(N)C(=O)NC2C(CO)OC(n3cnc4c(N(C)C)ncnc43)C2O)cc1 (centres undefined)", "Assigned category": "TRUE"}
{"Molecule": "CC1C2CCC3C4CC=C5CC(N(C)C)CC[C@@]5(C)C4CC[C@@]32CN1C (some centres undefined)", "Assigned category": "FALSE"}
{"Molecule": "COc1ccccc1OC[C@H](O)CO", "Assigned category": "FALSE"}
{"Molecule": "OCC1OC(n2cnc3c(=S)nc[nH]c32)C(O)C1O (centres undefined)", "Assigned category": "FALSE"}
{"Molecule": "CC1CCC(C(C)C)C(=O)C1 (centres undefined)", "Assigned category": "FALSE"}
{"Molecule": "COc1ccc2c(c1)N(C[C@@H](C)CN(C)C)c1ccccc1S2", "Assigned category": "FALSE"}
{"Molecule": "CC[C@H](CO)NCCN[C@@H](CC)CO", "Assigned category": "FALSE"}
{"Molecule": "CCN1CCC[C@@H](OC(=O)C(c2ccccc2)c2ccccc2)C1", "Assigned category": "FALSE"}
{"Molecule": "O=C1O[C@H](CN2CCOCC2)CN1/N=C\\c1ccc([N+](=O)[O-])o1", "Assigned category": "FALSE"}
{"Molecule": "C=C1c2c(Cl)ccc(O)c2C(O)=C2C(=O)[C@@]3(O)C(O)=C(C(N)=O)C(=O)[C@@H](N(C)C)[C@@H]3[C@@H](O)[C@H]12", "Assigned category": "FALSE"}
{"Molecule": "COc1ccc(-c2cc(=O)c3c(O)cc(O[C@H]4OC(COC5OC(C)C(O)C(O)[C@H]5O)C(O)C(O)C4O)cc3o2)cc1O (some centres undefined)", "Assigned category": "FALSE"}
{"Molecule": "COc1ccc2cc1Oc1ccc(cc1)CC1c3c(cc4c(c3Oc3cc5c(cc3OC)CCN(C)C5C2)OCO4)CCN1C (centres undefined)", "Assigned category": "TRUE"}
{"Molecule": "C[C@@H]1O[C@H](O[C@@H]2\\C=C/C=C\\C=C/C=C\\C[C@H](C)OC(=O)/C=C\\[C@H]3O[C@@H]3C[C@H](O)C[C@]3(O)C[C@@H](O)[C@@H](C(=O)O)[C@H](C2)O3)[C@@H](O)[C@H](N)[C@@H]1O (stereo in doubt)", "Assigned category": "FALSE"}
{"Molecule": "NC(C(=O)O)[C@@H]1CC(Cl)=NO1 (some centres undefined)", "Assigned category": "TRUE"}
{"Molecule": "CCN[C@@H]1C[C@H](N)[C@H](O[C@H]2OC(CN)=CC[C@H]2N)[C@@H](O)[C@H]1O[C@H]1OC[C@@](C)(O)[C@@H](NC)[C@@H]1O", "Assigned category": "FALSE"}
{"Molecule": "CC[C@H]1NC(=O)c2cc(S(N)(=O)=O)c(Cl)cc2N1", "Assigned category": "FALSE"}
{"Molecule": "NC(=O)c1ccc[n+]([C@@H]2O[C@H](COP(=O)([O-])OP(=O)(O)OC[C@H]3O[C@@H](n4cnc5c(N)ncnc54)[C@@H](O)[C@@H]3O)[C@@H](O)[C@@H]2O)c1", "Assigned category": "FALSE"}

FYI, the data here is from PubChem BioAssay (NCATS).
